meta.source: patent US20250289893A1

Molecular target: Chinese variant CD1a protein (human) (UniProt P06126)
Sequence (P06126 18-295, change not shown): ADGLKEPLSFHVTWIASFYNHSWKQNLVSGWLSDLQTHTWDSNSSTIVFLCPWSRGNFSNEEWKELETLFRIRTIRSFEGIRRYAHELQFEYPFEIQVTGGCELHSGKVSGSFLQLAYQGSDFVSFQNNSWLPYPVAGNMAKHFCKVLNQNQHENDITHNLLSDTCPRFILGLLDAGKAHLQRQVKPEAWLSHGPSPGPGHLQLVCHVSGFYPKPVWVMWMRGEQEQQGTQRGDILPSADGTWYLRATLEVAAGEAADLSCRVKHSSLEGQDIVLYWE
Test: ELISA, 0.01 µg/ml antibody
So basically: Optical Density (OD) at 1 OD or higher? That is t. Lower than 1 OD? That is f.

>  <BINDER>
110 (VR12112) (antibody, V domains shown, also called OX110; antibody 110) VH: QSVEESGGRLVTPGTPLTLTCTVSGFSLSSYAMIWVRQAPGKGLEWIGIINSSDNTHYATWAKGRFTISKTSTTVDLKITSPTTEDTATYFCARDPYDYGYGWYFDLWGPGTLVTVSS VL: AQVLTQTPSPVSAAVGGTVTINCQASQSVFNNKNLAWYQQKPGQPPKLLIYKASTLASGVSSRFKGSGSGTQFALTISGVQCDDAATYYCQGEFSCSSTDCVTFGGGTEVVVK

>  <LABEL>
t

$$$$
>  <BINDER>
116 (VR12117) (antibody, V domains shown, also called OX116) VH: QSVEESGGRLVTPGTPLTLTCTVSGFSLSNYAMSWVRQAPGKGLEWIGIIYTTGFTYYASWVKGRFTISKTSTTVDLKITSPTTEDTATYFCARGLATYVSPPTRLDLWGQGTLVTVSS VL: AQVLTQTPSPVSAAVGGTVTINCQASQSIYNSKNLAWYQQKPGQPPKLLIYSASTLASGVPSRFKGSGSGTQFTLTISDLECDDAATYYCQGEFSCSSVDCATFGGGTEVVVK

>  <LABEL>
t

$$$$
>  <BINDER>
77A (VR11851) (antibody, V domains shown, also called OX77a; antibody 77a) VH: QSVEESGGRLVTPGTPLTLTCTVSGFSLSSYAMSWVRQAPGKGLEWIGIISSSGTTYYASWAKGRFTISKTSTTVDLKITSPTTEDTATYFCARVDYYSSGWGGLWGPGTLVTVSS VL: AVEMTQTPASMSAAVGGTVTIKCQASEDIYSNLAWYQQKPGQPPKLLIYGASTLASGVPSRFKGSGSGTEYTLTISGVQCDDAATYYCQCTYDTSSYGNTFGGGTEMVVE

>  <LABEL>
f

$$$$
>  <BINDER>
111 (VR12113) (antibody, V domains shown, also called OX111) VH: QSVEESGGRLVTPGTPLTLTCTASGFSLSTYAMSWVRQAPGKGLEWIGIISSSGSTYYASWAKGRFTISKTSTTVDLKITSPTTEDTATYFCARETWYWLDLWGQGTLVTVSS VL: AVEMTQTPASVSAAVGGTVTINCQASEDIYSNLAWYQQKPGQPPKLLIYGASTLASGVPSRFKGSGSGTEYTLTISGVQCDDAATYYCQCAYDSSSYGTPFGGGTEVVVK

>  <LABEL>
t

$$$$
